# PROCEDURE_SUMMARY: Inhibition of Bacillus cereus metallo beta-lactamase assessed as nitrocefin substrate hydrolysis after 20 mins
ENDPOINT_NAME: pIC50
Worth noting: pIC50 values are minus log10 of concentrations stated in mol/L.

Fill blank: measured pIC50 of the sequence MERCURIC CHLORIDE is ____.
4.03

---

# System: Pseudomonas aeruginosa
# PROCEDURE_SUMMARY: Antimicrobial activity against Pseudomonas aeruginosa ATCC 43288
# Assay type: functional
The source made the active and inactive calls. No cut-off for these calls is given here.
ENDPOINT_NAME: inhibition zone (IZ)

INSERT INTO assay_data (input_smiles, recorded_result) VALUES
  ('O=S(=O)(Cl)c1ccc(/N=c2/oc(-c3ccc(Cl)cc3)cn2Cc2ccccc2)cc1', 'inactive'),
  ('CC(=O)OCC1=C(C(=O)O)N2C(=O)[C@@H](NS(=O)(=O)c3ccc(NC(=S)Nc4ccccc4)cc3)[C@H]2SC1', '8 mm'),
  ('CC(=O)OCC1=C(C(=O)O)N2C(=O)[C@@H](NS(=O)(=O)c3ccc(/N=c4/sc(-c5ccc(Cl)cc5)cn4Cc4ccccc4)cc3)[C@H]2SC1', '8 mm'),
  ('CC(=O)OCC1=C(C(=O)O)N2C(=O)[C@@H](NS(=O)(=O)c3ccc(NC(=O)NCc4ccccc4)cc3)[C@H]2SC1', '8 mm'),
  ('CC(=O)OCC1=C(C(=O)O)N2C(=O)[C@@H](NS(=O)(=O)c3ccc(N)cc3)[C@H]2SC1', '30 mm');

Form: Entry = CC(=O)OCC1=C(C(=O)O)N2C(=O)[C@@H](NC(=O)CN3CCN(c4ccc([N+](=O)[O-])cc4F)CC3)[C@H]2SC1 | System = Pseudomonas aeruginosa | inhibition zone (IZ) = ____
inactive

---

# Test system: Enterococcus faecalis
# PROCEDURE_SUMMARY: Antimicrobial activity against Enterococcus faecalis ATCC 29212
# Format: functional
Active and inactive are the calls of the source. No cut-off for these calls is given here.
ENDPOINT_NAME: inhibition zone (IZ)

Some molecules with recorded inhibition zone (IZ):
INSERT INTO measurements (input_smiles, recorded_result) VALUES
  ('O=S(=O)(Cl)c1ccc(NC(=S)Nc2ccccc2)cc1', 'inactive'),
  ('CC(=O)OCC1=C(C(=O)O)N2C(=O)[C@@H](NS(=O)(=O)c3ccc(/N=c4/sc(-c5ccc(Cl)cc5)cn4Cc4ccccc4)cc3)[C@H]2SC1', '8 mm'),
  ('O=C(NCc1ccccc1)Nc1ccc(S(=O)(=O)Cl)cc1', '16 mm'),
  ('Nc1ccc(S(=O)(=O)Cl)cc1', '12 mm'),
  ('CC(=O)OCC1=C(C(=O)O)N2C(=O)[C@@H](NS(=O)(=O)c3ccc([N+](=O)[O-])cc3)[C@H]2SC1', '6 mm');

Any idea what its inhibition zone (IZ) is? The molecule is CC(=O)OCC1=C(C(=O)O)N2C(=O)[C@@H](NS(=O)(=O)c3ccc(NC(=O)NCc4ccccc4)cc3)[C@H]2SC1
10 mm

State the recorded inhibition zone (IZ) for this entry: CC(=O)OCC1=C(C(=O)O)N2C(=O)[C@@H](NS(=O)(=O)c3ccc(/N=C4/SC(=O)CN4Cc4ccccc4)cc3)[C@H]2SC1
10 mm

What does the record list as inhibition zone (IZ) for CC(=O)OCC1=C(C(=O)O)N2C(=O)[C@@H](NS(=O)(=O)c3ccc(NC(=O)Nc4ccccc4)cc3)[C@H]2SC1 ?
8 mm

Entry under review: O=C1CN(Cc2ccccc2)/C(=N\c2ccc(S(=O)(=O)Cl)cc2)S1 . Reported inhibition zone (IZ)?
10 mm

---

Consider the following compounds and their measured inhibition zone (IZ) readings.
# System: Pseudomonas aeruginosa
# PROCEDURE_SUMMARY: Antimicrobial activity against Pseudomonas aeruginosa ATCC 43288
# Assay type: functional

INSERT INTO measurements (input_smiles, endpoint_name, recorded_result) VALUES
  ('CC(=O)OCC1=C(C(=O)O)N2C(=O)[C@@H](NS(=O)(=O)c3ccc(NC(=S)NCc4ccccc4)cc3)[C@H]2SC1', 'inhibition zone (IZ)', '6 mm'),
  ('CC(=O)OCC1=C(C(=O)O)N2C(=O)[C@@H](NS(=O)(=O)c3ccc(/N=c4/sc(-c5ccc(Cl)cc5)cn4-c4ccccc4)cc3)[C@H]2SC1', 'inhibition zone (IZ)', '6 mm'),
  ('O=C(NCc1ccccc1)Nc1ccc(S(=O)(=O)Cl)cc1', 'inhibition zone (IZ)', '20 mm');

Please look at the following compound next.
Could you tell me which inhibition zone (IZ) is on file for Nc1ccc(S(=O)(=O)Cl)cc1 ?
28 mm

---

# Tested on: Yersinia pseudotuberculosis
# PROCEDURE_SUMMARY: Antimicrobial activity against Yersinia pseudotuberculosis ATCC 911
# Assay type: functional
Calls of active or inactive are those of the source. The calls are words filed in the database; no cut-off is given here.
ENDPOINT_NAME: inhibition zone (IZ)

In the examples that follow, each entry is paired with its recorded inhibition zone (IZ).
INSERT INTO assay_data (input_smiles, endpoint_name, recorded_result) VALUES
  ('CC(=O)OCC1=C(C(=O)O)N2C(=O)[C@@H](NS(=O)(=O)c3ccc(NC(=O)NCc4ccccc4)cc3)[C@H]2SC1', 'inhibition zone (IZ)', '10 mm'),
  ('O=S(=O)(Cl)c1ccc(/N=c2/sc(-c3ccc(Cl)cc3)cn2Cc2ccccc2)cc1', 'inhibition zone (IZ)', 'inactive'),
  ('CC(=O)OCC1=C(C(=O)O)N2C(=O)[C@@H](NS(=O)(=O)c3ccc(NC(=S)NCc4ccccc4)cc3)[C@H]2SC1', 'inhibition zone (IZ)', '8 mm'),
  ('O=C1CN(Cc2ccccc2)/C(=N\c2ccc(S(=O)(=O)Cl)cc2)S1', 'inhibition zone (IZ)', 'inactive'),
  ('CC(=O)OCC1=C(C(=O)O)N2C(=O)[C@@H](NS(=O)(=O)c3ccc(/N=c4/sc(-c5ccc(Cl)cc5)cn4Cc4ccccc4)cc3)[C@H]2SC1', 'inhibition zone (IZ)', '8 mm');

What value of inhibition zone (IZ) has been reported for the following compound? CC(=O)OCC1=C(C(=O)O)N2C(=O)[C@@H](NS(=O)(=O)c3ccc(NC(=O)Nc4ccccc4)cc3)[C@H]2SC1
8 mm

Record request: inhibition zone (IZ) value, item CC(=O)OCC1=C(C(=O)O)N2C(=O)[C@@H](NS(=O)(=O)c3ccc([N+](=O)[O-])cc3)[C@H]2SC1
inactive

---

# Test system: Pseudomonas aeruginosa
# PROCEDURE_SUMMARY: Antimicrobial activity against Pseudomonas aeruginosa ATCC 43288
# Assay type: functional
Active and inactive are the calls of the source. The rule behind the calls is not given here.
ENDPOINT_NAME: inhibition zone (IZ)

In the examples that follow, each entry is paired with its recorded inhibition zone (IZ).
INSERT INTO measurements (input_smiles, endpoint_name, recorded_result) VALUES
  ('CC(=O)OCC1=C(C(=O)O)N2C(=O)[C@@H](NS(=O)(=O)c3ccc(/N=C4/SC(=O)CN4Cc4ccccc4)cc3)[C@H]2SC1', 'inhibition zone (IZ)', '8 mm'),
  ('O=S(=O)(Cl)c1ccc(/N=c2/sc(-c3ccc(Cl)cc3)cn2-c2ccccc2)cc1', 'inhibition zone (IZ)', 'inactive'),
  ('O=S(=O)(Cl)c1ccc(/N=c2/sc(-c3ccc(Cl)cc3)cn2Cc2ccccc2)cc1', 'inhibition zone (IZ)', 'inactive'),
  ('O=C(Cl)CN1CCN(c2ccc([N+](=O)[O-])cc2F)CC1', 'inhibition zone (IZ)', 'inactive'),
  ('CC(=O)OCC1=C(C(=O)O)N2C(=O)[C@@H](NS(=O)(=O)c3ccc(NC(=O)Nc4ccccc4)cc3)[C@H]2SC1', 'inhibition zone (IZ)', '6 mm'),
  ('O=C(Nc1ccccc1)Nc1ccc(S(=O)(=O)Cl)cc1', 'inhibition zone (IZ)', 'inactive'),
  ('O=C1CN(Cc2ccccc2)/C(=N\c2ccc(S(=O)(=O)Cl)cc2)S1', 'inhibition zone (IZ)', 'inactive');

Pending compound:
Short answer please: inhibition zone (IZ), Pseudomonas aeruginosa, entry O=S(=O)(Cl)c1ccc(NC(=S)NCc2ccccc2)cc1
20 mm

---

# System: Enterococcus faecalis
# PROCEDURE_SUMMARY: Antimicrobial activity against Enterococcus faecalis ATCC 29212
# Type: functional
ENDPOINT_NAME: inhibition zone (IZ)

INSERT INTO measurements (input_smiles, endpoint_name, recorded_result) VALUES
  ('CC(=O)OCC1=C(C(=O)O)N2C(=O)[C@@H](NS(=O)(=O)c3ccc(NC(=S)NCc4ccccc4)cc3)[C@H]2SC1', 'inhibition zone (IZ)', '10 mm'),
  ('O=C(Cl)CN1CCN(c2ccc([N+](=O)[O-])cc2F)CC1', 'inhibition zone (IZ)', '8 mm'),
  ('O=S(=O)(Cl)c1ccc(/N=c2/oc(-c3ccc(Cl)cc3)cn2Cc2ccccc2)cc1', 'inhibition zone (IZ)', '8 mm'),
  ('CC(=O)OCC1=C(C(=O)O)N2C(=O)[C@@H](NS(=O)(=O)c3ccc(N)cc3)[C@H]2SC1', 'inhibition zone (IZ)', '16 mm');

Find the measured inhibition zone (IZ): item O=S(=O)(Cl)c1ccc(NC(=S)NCc2ccccc2)cc1 , target or system Enterococcus faecalis.
16 mm

Value wanted: inhibition zone (IZ) (Enterococcus faecalis) of entry CC(=O)OCC1=C(C(=O)O)N2C(=O)[C@@H](NS(=O)(=O)c3ccc(NC(=S)Nc4ccccc4)cc3)[C@H]2SC1
10 mm
